Entries and their measured inhibition follow.
# tested_target: Pantothenate synthetase (Mycobacterium tuberculosis (strain ATCC 25618 / H37Rv)) (UniProt P9WIL5)
# Sequence (P9WIL5 whole entry, looked up): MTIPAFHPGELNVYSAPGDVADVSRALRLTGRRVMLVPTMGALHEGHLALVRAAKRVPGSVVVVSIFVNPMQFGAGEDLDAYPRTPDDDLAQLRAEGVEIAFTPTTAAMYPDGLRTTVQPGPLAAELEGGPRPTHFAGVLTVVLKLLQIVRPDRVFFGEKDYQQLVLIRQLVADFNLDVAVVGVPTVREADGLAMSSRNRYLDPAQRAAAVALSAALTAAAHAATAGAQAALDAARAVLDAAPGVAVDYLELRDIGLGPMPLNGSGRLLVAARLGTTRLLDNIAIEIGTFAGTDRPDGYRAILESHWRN
# assay_name: Coupled enzyme confirmation of inhibitors against recombinant Mtb PanC (AID 375);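 note: 0% = full reaction with vehicle and 100% = no enzyme background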
# condition_summary: coupled enzyme assay; at 10 µM, stronger effect = higher value
Activity calls are given as the source filed them. The rule behind the calls is not given here.

Here is how some molecules turned out for inhibition.
{"molecule": "CCOC(=O)CNc1ccc2c(c1)OCO2", "inhibition": "0% (inactive)"}
{"molecule": "COc1ccc(C2N(C(=O)c3ccccc3)CCN2C(=O)c2ccccc2)cc1", "inhibition": "0% (inactive)"}
{"molecule": "COc1cccc(-c2cc(C(F)(F)F)n3ncc(C(=O)O)c3n2)c1", "inhibition": "0% (inactive)"}

[Q] Param item = Cc1ccc(-n2ncc3c(N4CCCC(C)C4)ncnc32)c(C)c1 (stereo not drawn) ; retrieve measured inhibition.
[A] 5% (inactive)

[Q] For COc1cccc(NC(=O)c2nc3nc(C)cc(C(F)F)n3n2)c1 , what is its reported inhibition?
[A] 0% (inactive)

[Q] # query: inhibition of entry COc1cc(=O)[nH]c(SCc2c(F)c(F)c(F)c(F)c2F)n1
[A] 2% (inactive)

[Q] Name the recorded inhibition for C/C=C(\C)c1nnc(NC(=O)C(C)C)s1 .
[A] 1% (inactive)

[Q] Could you tell me which inhibition is on file for COC(=O)c1cc(NC(=O)C2CC=CCC2C(=O)O)cc(C(=O)OC)c1 (stereo not drawn) ?
[A] 3% (inactive)

[Q] Give the measured inhibition of CCCCOc1ccccc1NC(=O)c1ccco1 .
[A] 0% (inactive)

[Q] Request the reported inhibition associated with Cc1ccc(N2CC(C)Cn3c2nc2c3c(=O)n(CC(=O)OCc3ccccc3)c(=O)n2C)cc1C (stereo not drawn)
[A] 0% (inactive)

[Q] I would be grateful if you could share the reported inhibition for Cn1c(Cc2ccccc2)nnc1SCC(=O)N1CCOCC1 .
[A] 0% (inactive)

[Q] Fill in: inhibition of S=c1[nH]nc(Cc2ccccc2)n1Cc1ccco1 is ___
[A] 0% (inactive)

[Q] Given O=C(O)Cn1cc(C(=O)c2ccccc2)c2ccccc21 , state its recorded inhibition.
[A] 0% (inactive)

[Q] Sample COc1ccc(S(=O)(=O)N2CCN(c3ccc(C)cc3C)CC2)cc1OC — what was its inhibition?
[A] 3% (inactive)

[Q] Consider the molecule shown here: CCOc1ccc2[nH]c(=O)c(C(c3nnnn3CC3CCCO3)N3CCc4ccccc4C3)cc2c1 (stereo not drawn) What is its recorded inhibition?
[A] 0% (inactive)

[Q] // inhibition lookup, key: O=C1CC(c2ccc(Cl)cc2)n2nc(N3C(=O)c4ccccc4C3=O)nc2N1 (stereo not drawn)
[A] 5% (inactive)

[Q] Give its inhibition value. Item: COc1ccc2c(c1)[nH]c1c(=O)n(CC3CCCO3)cnc12 (stereo not drawn)
[A] 1% (inactive)

[Q] Suppose we examine the molecule Cn1c(=O)n(Cc2ccc(F)cc2)c(=O)c2c1nc1n2CCCN1Cc1ccccc1 ; what inhibition value has been reported?
[A] 0% (inactive)

[Q] Query (molecule): COc1ccc(-n2c(SCC(N)=O)nc3sc4c(c3c2=O)CCN(C)C4)cc1 ; field requested: inhibition
[A] 0% (inactive)

[Q] Reported inhibition, molecule COc1cccc(NC(=O)N2CCCC2C(=O)Nc2ccc3c(c2)OCO3)c1 (stereo not drawn) : ____
[A] 4% (inactive)

[Q] # input molecule: Clc1ccc2nc(N3CCCCC3)[nH]c2c1 ; wanted: its inhibition
[A] 3% (inactive)

[Q] I am curious: what inhibition value has been reported for O=C(O)CCCC(=O)Nc1ccc(Br)cc1C(=O)O ?
[A] 0% (inactive)

[Q] If you can, please state the reported inhibition value of CCn1nnnc1SCC(=O)Nc1nnc(C(C)C)s1 .
[A] 3% (inactive)

----------
# tested_target: Pantothenate synthetase (Mycobacterium tuberculosis (strain ATCC 25618 / H37Rv)) (UniProt P9WIL5)
# assay_name: Coupled enzyme confirmation of inhibitors against recombinant Mtb PanC (AID 375);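 note: 0% = full reaction with vehicle and 100% = no enzyme background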
# condition_summary: coupled enzyme assay; at 10 µM, stronger effect = higher value
recorded_metric: inhibition (%)
Provide the reading as a plain figure in %.

{"compound": "O=C(c1ccccc1)c1ccc(N2CCOCC2)c(NC(=O)c2ccco2)c1", "inhibition (%)": 11}
{"compound": "O=C(NCC1CCCO1)c1cc(-c2ccncc2)nc2ccc(S(=O)(=O)N3CCOCC3)cc12 (configuration not stated)", "inhibition (%)": 0}
{"compound": "CCOc1ccc(OCC)c(NC(=O)C2CCN(S(=O)(=O)c3cnc[nH]3)CC2)c1", "inhibition (%)": 4}
{"compound": "COc1cccc(N2CCN(Cc3nc(N)nc(Nc4ccccc4)n3)CC2)c1", "inhibition (%)": 0}
{"compound": "Cc1ccccc1OCc1nc2ccccc2c(=O)n1/N=C/c1ccco1", "inhibition (%)": 0}

[Q] Endpoint output: inhibition of CC1CCN(C(=O)CSCC(=O)Nc2nc(-c3cccs3)cs2)CC1 . Value?
[A] 0

[Q] Looking for the measured inhibition of CC(=O)N(C)C1(c2nnnn2CCOC(=O)Nc2ccc(Cl)cc2)CCCCC1 , can you help?
[A] 0

[Q] Dear colleague, I am looking for the recorded inhibition of the following compound: Cc1ccc(S(=O)(=O)N2CCN(c3nc(C)nc4sc(C)c(C)c34)CC2)cc1
[A] 2

[Q] Quick one: inhibition for COC(=O)C1=C(C)Nc2nnnn2C1c1ccc(Cl)cc1Cl (configuration not stated) ?
[A] 0

[Q] I have this compound here, O=C(C1CCC(CNS(=O)(=O)c2cccc3cccnc23)CC1)N1CCCC1 (configuration not stated) , and I need its recorded inhibition.
[A] 0

----------
# tested_target: Pantothenate synthetase (Mycobacterium tuberculosis (strain ATCC 25618 / H37Rv)) (UniProt P9WIL5)
# assay_name: Coupled enzyme confirmation of inhibitors against recombinant Mtb PanC (AID 375);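 note: 0% = full reaction with vehicle and 100% = no enzyme background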
# condition_summary: coupled enzyme assay; at 10 µM, stronger effect = higher value
Cut-off 1% on inhibition, inclusive. At or above means t; below means f.

See these solved cases before continuing.
{"compound": "O=C(COC(=O)c1ccc(S(=O)(=O)Nc2ccccc2)cc1)NCCN1C(=O)CSC1=O", "label_class": "f"}
{"compound": "O=C(CN1CCN(c2nc(-c3ccc(F)cc3)cs2)CC1)NCc1ccc2c(c1)OCO2", "label_class": "t"}

[Q] Assess whether reported inhibition for Cc1cc(-c2ccccc2)c2nncn2n1 sits at 1% or higher.
[A] t

[Q] Hi, just wondering whether COc1ccc(-c2ccc(-c3noc(-c4ccccc4OC)n3)c(OC)n2)cc1 shows inhibition of 1% or higher.
[A] f

----------
Parameter inhibition: see the listing below.
# tested_target: Pantothenate synthetase (Mycobacterium tuberculosis (strain ATCC 25618 / H37Rv))
# assay_name: Coupled enzyme confirmation of inhibitors against recombinant Mtb PanC (AID 375);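 note: 0% = full reaction with vehicle and 100% = no enzyme background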
# condition_summary: coupled enzyme assay; at 10 µM, stronger effect = higher value
The source made the active and inactive calls. How the calls were made is not given here.

Please review the following examples before continuing.
{"compound": "CC(=O)c1cccc(S(=O)(=O)N2CCC(n3nnc4cc(F)ccc43)CC2)c1", "recorded_metric": "inhibition", "recorded_result": "0% (inactive)"}
{"compound": "Cc1onc(-c2c(F)cccc2Cl)c1C(=O)Nc1nc2c(s1)CCCC2", "recorded_metric": "inhibition", "recorded_result": "0% (inactive)"}
{"compound": "CC1=C(C#N)C(=O)NC(C)(C)C1", "recorded_metric": "inhibition", "recorded_result": "0% (inactive)"}
{"compound": "CC1(C)CC(=O)c2cnc(NC(=O)CCc3ccccc3)nc2C1", "recorded_metric": "inhibition", "recorded_result": "0% (inactive)"}
{"compound": "O=S(=O)(c1ccccc1)N1CCSC1c1ccco1 (centres undefined)", "recorded_metric": "inhibition", "recorded_result": "3% (inactive)"}
{"compound": "Cc1ccc(Nc2nc(Oc3ccc(=O)[nH]n3)nc(N(C)C)n2)cc1", "recorded_metric": "inhibition", "recorded_result": "0% (inactive)"}
{"compound": "c1cncc(-c2nc3c4ccccc4nc(N4CCC(N5CCCCC5)CC4)n3n2)c1", "recorded_metric": "inhibition", "recorded_result": "0% (inactive)"}
{"compound": "COc1ccc(OC)c(NC(=O)CSc2ncccc2C(=O)O)c1", "recorded_metric": "inhibition", "recorded_result": "0% (inactive)"}

Shift focus to the following entry.
[Q] For O=C(c1cc(-c2cccs2)on1)N1CCc2ccccc2C1 , what is its reported inhibition?
[A] 2% (inactive)

----------
# tested_target: Pantothenate synthetase (Mycobacterium tuberculosis (strain ATCC 25618 / H37Rv)) (UniProt P9WIL5)
# assay_name: Coupled enzyme confirmation of inhibitors against recombinant Mtb PanC (AID 375);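 note: 0% = full reaction with vehicle and 100% = no enzyme background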
# condition_summary: coupled enzyme assay; at 10 µM, stronger effect = higher value
Entries annotated with measured inhibition
All answers are understood in %, so give the number only.

Recorded results for 5 compounds are shown here.
{"compound": "COc1ccc(-n2c(Cc3cccn3C)nnc2SCC(=O)Nc2ccccc2)cc1", "unit_label": "%", "inhibition": 0}
{"compound": "CCOC(=O)N1CCC(NC(=O)C2CCCN(C(=O)c3cc4sccc4n3C)C2)CC1 (stereo not drawn)", "unit_label": "%", "inhibition": 0}
{"compound": "O=c1c2ccccc2nc(SCc2nc(-c3ccccc3)no2)n1-c1ccc(F)cc1", "unit_label": "%", "inhibition": 0}
{"compound": "COc1ccc(CCNC(=O)C2(C)CCC(=O)N2Cc2ccc3c(c2)OCO3)cc1OC (stereo not drawn)", "unit_label": "%", "inhibition": 1}
{"compound": "COc1ccc2[nH]c(=O)c(CNC3CCCCC3)cc2c1", "unit_label": "%", "inhibition": 0}

[Q] Could you tell me which inhibition is on file for COC(=O)c1sc(S(=O)(=O)Nc2ccc3cn[nH]c3c2)c(C(=O)OC)c1C ?
[A] 0

[Q] Entry under review: COc1ccc(-c2cc(C(=O)N3CCN(Cc4ccccc4)CC3)no2)cc1OC . Reported inhibition?
[A] 3

[Q] Look at this compound and give its reported inhibition. Cc1cnn(C2CCN(C)CC2)c1N
[A] 0

[Q] I would be grateful if you could share the reported inhibition for Cc1ccc(S(=O)(=O)Cn2nnnc2CN(Cc2ccco2)Cc2cccs2)cc1 .
[A] 0

[Q] I would be grateful if you could share the reported inhibition for Cc1cc(C(=O)COc2cccc3cccnc23)c(C)n1C .
[A] 0

[Q] What value of inhibition has been reported for the following compound? COc1ccc(CN(C2CCCC2)S(=O)(=O)c2ccc(-n3cnnn3)cc2)cc1OC
[A] 0

[Q] If you can, please state the reported inhibition value of O=C(Cn1nnc2c(cnn2-c2ccc(F)cc2)c1=O)c1ccccc1F .
[A] 1

[Q] // lookup inhibition for Cc1ccc(NC(=O)CSc2nnc(-c3ccncc3)n2C)cc1C
[A] 0

[Q] What does the record list as inhibition for COc1ccc(N2CCN(Cc3cc(=O)oc4cc(C)c(Cl)c(C)c34)CC2)cc1 ?
[A] 6

[Q] Give the measured inhibition of O=C(NCc1cccs1)c1cc2c(s1)CCCC2 .
[A] 0
